Assay: NCI Yeast Anticancer Drug Screen. Data for the sgs1 mgt1 strain (AID 161);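 further: 0% = growth of cultures given vehicle only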
Conditions: S. cerevisiae sgs1 mgt1 strain, at 50.0 µM, hits give high values
Protocol: Growth inhibition of yeast strains with defined genetic alterations is measured as a screen for potential anti-cancer activity. Selected strains with alterations in DNA damage repair or cell cycle control were exposed to compounds and growth inhibition was measured relative to vehicle treated controls. The strain used in this assay is sgs1 mgt1
The panel holds about 79,000 compounds, 15% with a hit somewhere; the sample as a whole holds those more often.
Measured growth inhibition by item
Reply numerically in %, unit not repeated.

Input CC(=O)OCC1OC(OC(C)=O)C(NC(=S)N(C)N=O)C(OC(C)=O)C1OC(C)=O (stereo not given) . Output growth inhibition: -16.9

Lab note: Cc1nc2ccccc2nc1N1CCCC1 gave growth inhibition of -26.9

In plain terms, COC(=O)CC(C(C(=O)OC)C(=O)OC)N1C(=O)OCC1c1ccccc1 (stereo not given) has a documented growth inhibition of -29.1

The compound identified as CNC(=O)NCCCC(NC(C)=O)C(=O)NCc1ccccc1 (stereo not given) registered its growth inhibition at -16.2

For record Cc1n[nH]c(=S)n1NC=O the listed growth inhibition is -4.7

Short answer for C[N+]1(C)CCC(O)CC1 : growth inhibition was -3.1
